tested on: wheat scab fungi (Fusarium graminearum and Fusarium asiaticum); experiment: organism not typed; type: cell-based; conditions: 0.5 mg/L; read-out: Mycelial growth inhibition rate (MGIR)
Assign inhibition at 0.5 µg/mL to each entry below.

The recorded inhibition at 0.5 µg/mL for CCOC(=O)/C(C#N)=C(\N)c1ccc(N2CCC2)cc1 [Compound 15] is > 90%

The recorded inhibition at 0.5 µg/mL for CCCOC(=O)/C(C#N)=C(\N)c1ccc(NC)cc1 [Compound 34] is > 90%

The recorded inhibition at 0.5 µg/mL for CCCOC(=O)/C(C#N)=C(\N)c1ccc(N(C)C)cc1 [Compound 36] is > 90%
